- testDetails: Selectivity index, ratio of IC50 for HEK293T cells to IC50 for chloroquine-resistant ring stage of Plasmodium falciparum W2
- Assay type: toxicity, cell-based, HEK-293T
- conditionParameters: human; read-out: Ratio IC50
// reported selectivity ratio for each item listed

Worked set:
>  <smilesRepr>
CCCCOc1c(N(CCc2ccccc2)NC(=O)[C@H](CC(C)C)NC(=O)OCc2ccccc2)c(=O)c1=O

>  <selectivity ratio>
> 22

$$$$
>  <smilesRepr>
CCCCOc1c(NNC(=O)[C@H](CC(C)C)NC(=O)N2CCOCC2)c(=O)c1=O

>  <selectivity ratio>
> 11

$$$$
>  <smilesRepr>
CCCCOc1c(Nc2ccc(C(C)(C)C)cc2)c(=O)c1=O

>  <selectivity ratio>
4.7

$$$$
>  <smilesRepr>
COc1c(NNC(=O)[C@H](CC(C)C)NC(=O)OC(C)(C)C)c(=O)c1=O

>  <selectivity ratio>
> 12

$$$$
>  <smilesRepr>
CCCCOc1c(N(CCc2ccccc2)NC(=O)CNC(=O)OCc2ccccc2)c(=O)c1=O

>  <selectivity ratio>
> 19

$$$$

Task item: Provide selectivity ratio value for the following compound: COc1c(N(CCc2ccccc2)NC(=O)[C@H](CC(C)C)NC(=O)OCc2ccccc2)c(=O)c1=O
Reply: > 33

Task item: Assign selectivity ratio to the following record: O=c1c(Nc2ccc(N3CCCCC3)cc2)c(Nc2ccc(N3CCCCC3)cc2)c1=O
Reply: > 12

Task item: Tell us which selectivity ratio value is on record for COc1c(N(CCc2ccccc2)NC(=O)[C@H](Cc2ccccc2)NC(=O)OCc2ccccc2)c(=O)c1=O
Reply: > 32

Task item: Please list selectivity ratio recorded for the compound COc1c(N(CCc2ccccc2)NC(=O)[C@H](CC(C)C)NC(=O)OC(C)(C)C)c(=O)c1=O
Reply: > 16

###

pIC50 values by entry
- targetOfAssay: Papain (Carica papaya, UniProt P00784)
- Sequence (P00784 whole entry): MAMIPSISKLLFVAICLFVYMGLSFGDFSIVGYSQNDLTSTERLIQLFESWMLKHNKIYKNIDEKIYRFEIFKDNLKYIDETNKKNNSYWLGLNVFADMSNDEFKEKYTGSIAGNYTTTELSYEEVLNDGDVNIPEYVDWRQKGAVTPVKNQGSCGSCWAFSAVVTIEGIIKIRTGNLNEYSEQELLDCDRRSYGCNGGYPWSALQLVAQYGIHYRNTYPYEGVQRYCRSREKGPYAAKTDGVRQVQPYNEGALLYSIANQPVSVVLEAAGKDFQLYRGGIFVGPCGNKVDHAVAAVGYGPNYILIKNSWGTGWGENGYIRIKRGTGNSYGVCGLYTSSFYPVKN
pIC50: −log10 of the molar value.

# count of solved cases: 4
>  <molecule>
CC(Nc1c(NC(C)c2ccccc2)c(=O)c1=O)c1ccccc1 (stereo not given)

>  <result>
< 5.00

$$$$
>  <molecule>
CC(C)C[C@H](NC(=O)[C@H]1O[C@@H]1C(=O)O)C(=O)NCCCCN=C(N)N

>  <result>
6.92

$$$$
>  <molecule>
CCCCOc1c(Nc2ccc(N3CCCCC3)cc2)c(=O)c1=O

>  <result>
< 5.00

$$$$
>  <molecule>
COc1c(Nc2ccc(N3CCCCC3)cc2)c(=O)c1=O

>  <result>
< 5.00

$$$$

Okay, next one:
Task item: Given the molecule COc1c(N(CCc2ccccc2)NC(=O)[C@H](CC(C)C)NC(=O)OC(C)(C)C)c(=O)c1=O , write its reported pIC50.
Reply: < 5.00

###

- testDetails: Cytotoxicity against mouse NIH/3T3 cells assessed as inhibition of cell viability after 48 hrs by MTT assay
- Type: cell-based
- conditionParameters: NIH3T3, 48 h
measure: IC50

// solved cases for IC50 follow
>  <smilesRepr>
COc1c(N(CCc2ccccc2)NC(=O)CNC(=O)OCc2ccccc2)c(=O)c1=O

>  <IC50>
> 100 µM

$$$$
>  <smilesRepr>
CCCCOc1c(Nc2ccc(C(C)(C)C)cc2)c(=O)c1=O

>  <IC50>
17.5 µM

$$$$
>  <smilesRepr>
COc1c(N(CCc2ccccc2)NC(=O)[C@H](CC(C)C)NC(=O)OCc2ccccc2)c(=O)c1=O

>  <IC50>
> 100 µM

$$$$
>  <smilesRepr>
CCCCOc1c(N(CCc2ccccc2)NC(=O)[C@H](Cc2ccccc2)NC(=O)OCc2ccccc2)c(=O)c1=O

>  <IC50>
> 100 µM

$$$$

Task item: For the compound COc1c(N(CCc2ccccc2)NC(=O)[C@H](CC(C)C)NC(=O)OC(C)(C)C)c(=O)c1=O , report IC50.
Reply: > 100 µM

###

- testDetails: Selectivity index, ratio of IC50 for HEK293T cells to IC50 for chloroquine-resistant ring stage of Plasmodium falciparum W2
- Assay type: toxicity, cell-based, HEK-293T
- conditionParameters: human; read-out: Ratio IC50
measure: selectivity ratio

In the examples that follow, each entry is paired with its recorded selectivity ratio.
>  <smilesRepr>
COc1c(N(CCc2ccccc2)NC(=O)CNC(=O)OCc2ccccc2)c(=O)c1=O

>  <measure>
selectivity ratio

>  <result>
> 11

$$$$
>  <smilesRepr>
CCCCOc1c(Nc2ccc(N3CCCCC3)cc2)c(=O)c1=O

>  <measure>
selectivity ratio

>  <result>
> 32

$$$$
>  <smilesRepr>
CCCCOc1c(N(CCc2ccccc2)NC(=O)[C@H](Cc2ccccc2)NC(=O)OCc2ccccc2)c(=O)c1=O

>  <measure>
selectivity ratio

>  <result>
> 21

$$$$

Task item: Query selectivity ratio for CC(C)(C)c1ccc(Nc2c(Nc3ccc(C(C)(C)C)cc3)c(=O)c2=O)cc1
Reply: > 101
